Tested on: HMPV clinical isolate TN/1501/A1
Assay: HMPV antiviral assay Method-B (clinical isolate TN/1501/A1 in LLC-MK2 cells, ATP-Lite readout)
Assay type: cell-based, Human metapneumovirus (HMPV)
Conditions: human metapneumovirus, LLC-MK2, 144 h, hMPV WT1501 (clinical isolate TN/1501/A1), 6 days
Please go through the items and note down their EC50.

For the molecule COc1cc(C(=O)NC[C@](O)(c2cc3c(c(-c4ccc(F)c(F)c4F)n2)OC[C@]3(C)C(N)=O)C2CC2)cc2cn(C3CC3)nc12 [Example 525] , what EC50 is on record?
< 500 nM

Next molecule: COc1cc(C(=O)NC[C@](O)(c2cc3c(c(-c4csc5c(F)cccc45)n2)OC[C@]3(C)C(N)=O)C2(F)CC2)cc2cn(C(F)F)nc12 [Example 630]
< 500 nM

Next molecule: Cc1cnc2c(OC(F)(F)F)cc(C(=O)NC[C@](O)(c3cc4c(c(-c5ccc(F)cc5)n3)OC[C@]4(C)C(N)=O)C(F)(F)F)cc2c1 [Example 501]
> 500 nM

Next molecule: C[C@]1(C(N)=O)COc2c1cc([C@@](O)(CNC(=O)c1cc(Cl)c3nn(C4(F)CC4)cc3c1)C(F)(F)F)nc2-c1ccc(F)cc1 [Example 834]
< 500 nM

Next molecule: COc1cc(C(=O)NCC(O)(c2cc3c(c(-c4ccc(OC(F)(F)F)c(F)c4)n2)OC[C@]3(C)C(N)=O)C(F)(F)F)cc2cn(C3CC3)nc12 (some centres unmarked) [Example 927]
> 500 nM

Next molecule: Cc1cnc2c(OC(F)F)cc(C(=O)NC[C@](O)(c3cc4c(c(-c5ccc(F)c(Cl)c5F)n3)OC[C@]4(C)C(N)=O)C(F)(F)F)cc2c1 [Example 553]
< 500 nM

Next molecule: Cc1cnc2c(Cl)cc(C(=O)NC[C@](O)(c3cc4c(c(-c5cc(F)c(Cl)cc5F)n3)OC[C@]4(C)C(N)=O)C3CC3)cc2c1 [Example 1181]
< 500 nM

Next molecule: C[C@]1(C(N)=O)COc2c1cc([C@@](O)(CNC(=O)c1cc(F)c3nn(C4(F)CC4)cc3c1)C(F)(F)F)nc2-c1ccc(F)cc1 [Example 833]
> 500 nM

Next molecule: COc1cc(C(=O)NC[C@](O)(c2cc3c(c(-c4ccc(F)c(Cl)c4)n2)OC[C@@]3(CF)C(N)=O)C(F)(F)F)cc2cc(Cl)c(C)nc12 [Example 1046]
> 500 nM

Next molecule: C[C@]1(C(N)=O)COc2c1cc([C@@](O)(CNC(=O)c1cc(F)cc(NC(=O)NC3CC3)c1)C(F)(F)F)nc2-c1ccc(F)cc1 [Example 628]
> 500 nM

Next molecule: COc1cc(C(=O)NC[C@](O)(c2cc3c(c(-c4ccc(C(F)(F)F)c(Cl)c4)n2)OC[C@]3(C)C(N)=O)C(F)(F)F)cc2cc(Cl)c(C)nc12 [Example 581]
> 500 nM

Next molecule: COc1cc(C(=O)NC[C@](O)(c2cc3c(c(-c4csc5c(F)cccc45)n2)OC[C@]3(C)C(N)=O)C(F)(F)F)cc2cc(Br)cnc12 [Example 602]
< 500 nM

Next molecule: C[C@]1(C(N)=O)COc2c1cc([C@@](O)(CNC(=O)c1ccn3nc(C4CC4)cc3c1)C(F)(F)F)nc2-c1ccc2c(c1)OC(F)(F)O2 [Example 592]
< 500 nM

Next molecule: COc1ccc(-c2nc([C@](O)(CNC(=O)c3cc(OC)c4nn(C5CC5)cc4c3)C(F)(F)F)cc3c2OC[C@]3(C)C(N)=O)cc1 [Example 923]
> 500 nM

Next molecule: Cc1cnc2c(Cl)cc(C(=O)NC[C@](O)(c3cc4c(c(-c5cc(Cl)c(F)c(Cl)c5)n3)OC[C@]4(C)C(N)=O)C3CC3)cc2c1 [Example 682]
> 500 nM

Next molecule: COc1cc(C(=O)NC[C@](O)(c2cc3c(c(-c4ccc5c(c4)OC(F)(F)O5)n2)OC[C@]3(C)C(N)=O)C(F)(F)F)cn2cc(C3CC3)nc12 [Example 639]
< 500 nM

Next molecule: COc1cc(C(=O)NC[C@](O)(c2cc3c(c(-c4c(F)ccc(Cl)c4F)n2)OC[C@]3(C)C(N)=O)C2CC2)cc2cc(Br)c(C)nc12 [Example 1169]
< 500 nM

Next molecule: Cc1nc2c(Cl)cc(C(=O)NC[C@](O)(c3cc4c(c(-c5ccc(F)c(Cl)c5)n3)OC[C@]4(C)C(N)=O)C(F)(F)F)cc2cc1Cl [Example 884]
> 500 nM

Next molecule: Cc1cnc2c(Cl)cc(C(=O)NC[C@](O)(c3cc4c(c(-c5ccc(Cl)c(F)c5F)n3)OC[C@]4(C)C(N)=O)C3CC3)cc2c1 [Example 688]
< 500 nM

Next molecule: COc1cc(F)c(-c2nc([C@@](O)(CNC(=O)c3cc(OC)c4nn(C5CC5)cc4c3)C(F)(F)F)cc3c2OC[C@]3(C)C(N)=O)c(F)c1 [Example 962]
< 500 nM

Next molecule: COc1cc(C(=O)NC[C@](O)(c2cc3c(c(-c4ccc(C(F)(F)F)cc4)n2)OC[C@]3(C)C(N)=O)C2CC2)cc2cn(C3(F)CC3)nc12 [Example 794]
< 500 nM

Next molecule: COc1cc(C(=O)NC[C@](O)(c2cc3c(c(-c4ccc(F)cc4Cl)n2)OC[C@]3(C)C(N)=O)C(F)(F)F)cc2cc(Br)cnc12 [Example 521]
< 500 nM

Next molecule: COc1cc(C(=O)NC[C@](O)(c2cc3c(c(-c4ccc(F)c(F)c4Cl)n2)OC[C@]3(C)C(N)=O)C2CC2)cc2cn(C3CC3)nc12 [Example 533]
< 500 nM

---

Test system: HMPV clinical isolate TN/1501/A1
Assay: HMPV antiviral assay Method-B (clinical isolate TN/1501/A1 in LLC-MK2 cells, ATP-Lite readout)
Assay type: cell-based, Human metapneumovirus (HMPV)
Settings: human metapneumovirus, LLC-MK2, 144 h, hMPV WT1501 (clinical isolate TN/1501/A1), 6 days
Please go through the items and note down their EC50.

For the compound COc1cc(C(=O)NC[C@](O)(c2nc(-c3cc(Cl)c(F)cc3F)c3c(c2F)[C@@](C)(C(N)=O)CO3)C2CC2)cc2cn(C(F)F)nc12 , what EC50 is on record?
< 500 nM

Next compound: COc1cc(C(=O)NC[C@](O)(c2cc3c(c(-c4cccc(F)c4F)n2)OC[C@]3(C)C(N)=O)C(F)(F)F)cc2cn(C3CC3)nc12
< 500 nM

Next compound: COc1cc(C(=O)NC[C@](O)(c2cc3c(c(-c4ccc(F)c(F)c4Cl)n2)OC[C@]3(C)C(N)=O)C2(F)CC2)cc2cc(Cl)c(C)nc12
< 500 nM

---

Please go through the items and note down their pEC50.
Tested on: HMPV clinical isolate TN/1501/A1
Test: HMPV antiviral assay Method-B (clinical isolate TN/1501/A1 in LLC-MK2 cells, ATP-Lite readout)
Assay type: cell-based, Human metapneumovirus (HMPV)
Conditions: human metapneumovirus, LLC-MK2, 144 h, hMPV WT1501 (clinical isolate TN/1501/A1), 6 days
pEC50: −log10 of the molar value.

For the molecule COc1cc(C(=O)NC[C@](O)(c2cc3c(c(-c4cc(Cl)c(F)c(Cl)c4)n2)OC[C@]3(C)C(N)=O)C2CC2)cc2cc(Cl)c(C)nc12 , what pEC50 is on record?
< 6.30

Next molecule: C[C@]1(C(N)=O)COc2c1cc([C@@](O)(CNC(=O)c1cc(Cl)c3nn(C4CC4)cc3c1)C1CC1)nc2-c1cccc(F)c1Cl
> 6.30

Next molecule: COc1cc(C(=O)NC[C@](O)(c2cc3c(c(-c4cc5c(cc4Cl)OC(F)(F)O5)n2)OC[C@]3(C)C(N)=O)C2CC2)cc2cn(C3CC3)nc12
> 6.30

Next molecule: COc1cc(C(=O)NC[C@](O)(c2cc3c(c(-c4ccc(F)c(F)c4F)n2)OC[C@]3(C)C(N)=O)C(F)(F)F)cc2cn(C3CC3)nc12
> 6.30

Next molecule: COc1cc(C(=O)NC[C@@](O)(c2cc3c(c(-c4cc5c(cc4Cl)OC(F)(F)O5)n2)OC[C@]3(C)C(N)=O)C2CC2)cc2cn(C3CC3)nc12
< 6.30

Next molecule: COc1cc(C(=O)NC[C@](O)(c2cc3c(c(-c4ccccc4F)n2)OC[C@]3(C)C(N)=O)C(F)(F)F)cc2cn(C3CC3)nc12
> 6.30

Next molecule: C[C@]1(C(N)=O)COc2c1cc([C@@](O)(CNC(=O)c1cc(F)c(F)c(NC(=O)NC3CC3)c1)C(F)(F)F)nc2-c1ccc(F)cc1
< 6.30

Next molecule: COc1cc(C(=O)NC[C@](O)(c2cc3c(c(-c4csc5c(F)cccc45)n2)OC[C@]3(C)C(N)=O)C2CC2)cc2cc(Cl)c(C)nc12
> 6.30

Next molecule: Cc1cnc2c(Cl)cc(C(=O)NC[C@](O)(c3cc4c(c(-c5ccc(F)c(C(F)(F)F)c5)n3)OC[C@]4(C)C(N)=O)C3CC3)cc2c1
> 6.30

Next molecule: COc1cc(C(=O)NC[C@](O)(c2cc3c(c(-c4ccc5ncccc5c4)n2)OC[C@]3(C)C(N)=O)C(F)(F)F)cc2cn(C3CC3)nc12
< 6.30

Next molecule: COc1cc(C(=O)NC[C@](O)(c2cc3c(c(-c4ccc5c(c4)OC(F)(F)O5)n2)OC[C@]3(C)C(N)=O)C2CC2)cc2cn(C(F)F)nc12
> 6.30

Next molecule: COc1cc(C(=O)NC[C@](O)(c2cc3c(c(-c4ccc(F)c(F)c4F)n2)OC[C@@]3(C(N)=O)C(F)F)C(F)(F)F)cc2cn(C3CC3)nc12
> 6.30

Next molecule: COc1cc(C(=O)NC[C@](O)(c2cc3c(c(-c4c(F)ccc(Cl)c4F)n2)OC[C@]3(C)C(N)=O)C2CC2)cc2cn(C3CC3)nc12
> 6.30

Next molecule: Cc1cnc2c(OC(F)F)cc(C(=O)NC[C@](O)(c3cc4c(c(-c5ccc(F)c(Cl)c5)n3)OC[C@@]4(C(N)=O)C(F)F)C(F)(F)F)cc2c1
> 6.30

Next molecule: Cc1cnc2c(OC(F)F)cc(C(=O)NC[C@](O)(c3cc4c(c(-c5ccc6c(c5)OC(F)(F)O6)n3)OC[C@]4(C)C(N)=O)C3(F)CC3)cc2c1
> 6.30

Next molecule: CNC(=O)[C@@]1(C)COc2c1cc([C@@](O)(CNC(=O)c1cc(OC)c3nn(C(F)F)cc3c1)C(F)(F)F)nc2-c1ccc(F)cc1
> 6.30

Next molecule: COc1cc(C(=O)NC[C@](O)(c2cc3c(c(-c4ccc(Cl)c(F)c4F)n2)OC[C@]3(C)C(N)=O)C2CC2)cc2cn(C3CC3)nc12
> 6.30

Next molecule: Cc1cnc2c(OC(F)F)cc(C(=O)NC[C@](O)(c3cc4c(c(-c5ccc(F)cc5)n3)OC[C@@]4(C(N)=O)C(F)F)C(F)(F)F)cc2c1
> 6.30

Next molecule: COc1cc(C(=O)NC[C@](O)(c2cc3c(c(-c4cc(Cl)c(F)cc4F)n2)OC[C@]3(C)C(N)=O)C(F)(F)F)cc2cc(Br)cnc12
> 6.30

Next molecule: C[C@]1(C(N)=O)COc2c1cc([C@@](O)(CNC(=O)c1cc(Cl)c3nn(C4CC4)cc3c1)C1CC1)nc2-c1cc(F)c(F)c(Cl)c1
> 6.30
